- EXPERIMENTAL SYSTEM: L-lactate dehydrogenase A chain (Homo sapiens)
- METHOD NOTES: qHTS assay for inhibitors of human lactate dehydrogenase;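 also: values are at about 110 or 230 µM; plate controls were DMSO wells for no effect and wells without enzyme for full effect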
- TEST CONDITIONS: purified LDHA, NADH/diaphorase-resazurin fluorescence; active compounds read low
Among all 480,000 compounds or so, about 740 (0.15%) were called active. This is one part of a sample in which actives are shown more often than they occur.
# activity change listing for each entry below
PROPERTY LABEL: activity change (%)

INSERT INTO results (compound, property_label, experimental_result) VALUES
  ('COc1ccc(-c2c(C)c3cc(OS(=O)(=O)c4ccc(F)cc4)ccc3oc2=O)cc1OC', 'activity change', 1.58),
  ('NC(N)=Nc1ccc(F)cc1', 'activity change', 0.928),
  ('CC(C)(C)c1ccc(/C=N/NC(=O)c2ccccc2)cc1', 'activity change', 12.2),
  ('CSc1nnc([C@H](CC(C)C)NC(=O)OC(C)(C)C)o1', 'activity change', -6.07),
  ('CC(N)c1cccc([N+](=O)[O-])c1 (configuration not stated)', 'activity change', 8.12),
  ('O=S(=O)(Cc1nnnn1-c1ccc(Br)cc1)c1ccc(F)cc1', 'activity change', -2.83),
  ('COc1cc(CN2C(=O)C(=O)c3cccc(C)c32)ccc1OCCC(C)C', 'activity change', 5.04),
  ('O=[N+]([O-])c1cc(S(=O)(=O)Nc2cccc(Cl)c2)ccc1N=Nc1c(O)[nH]c2ccccc12', 'activity change', -42.1),
  ('Fc1ccc(OCc2nn3c(CSc4ccccc4)nnc3s2)cc1', 'activity change', -2.81),
  ('CC/C(=C(/c1ccccc1)c1ccc(OCC[N+](C)(C)C)cc1)c1ccccc1', 'activity change', -30.9),
  ('COCCN1C(=O)C(=O)/C(=C(/O)c2ccc3c(c2)OCCO3)C1c1cccc(O)c1 (configuration not stated)', 'activity change', 9.53),
  ('C/C(=N\NC(=O)c1ccc(C(C)(C)C)cc1)C(C)C', 'activity change', 11.2),
  ('c1ccc(Oc2ccc(CNc3ncccn3)cn2)cc1', 'activity change', -10.1),
  ('Cc1cc(C)c(/C=N/NC(=O)c2ccccc2)c(C)c1', 'activity change', 4.2),
  ('CC(=O)c1ccc(S(=O)(=O)NCc2nnnn2-c2ccccc2)cc1', 'activity change', -5.01),
  ('CCN(CC)S(=O)(=O)c1ccc(N2CCCC2)c(NS(=O)(=O)c2cccs2)c1', 'activity change', -11.2),
  ('CC(C)CC(=O)Nc1ccc(N2CCCC2)cc1', 'activity change', 39.8),
  ('CCN(CC)S(=O)(=O)c1ccc(C)c(NS(=O)(=O)c2cccc(C#N)c2)c1', 'activity change', -34.7),
  ('Cc1c(C(N)=O)[n+](=O)c2ccccc2n1[O-]', 'activity change', -7.73),
  ('Cc1ccc(NC(=O)C(Sc2nnnn2C2CCCC2)c2ccccc2)cc1 (configuration not stated)', 'activity change', 11.6),
  ('O=C(CCC1NC(=O)c2ccccc2NC1=O)NC1CCCC1 (configuration not stated)', 'activity change', -4.57),
  ('O=C(CSc1ccccc1F)c1ccc2c(c1)-c1ccccc1C2', 'activity change', 10.6);

----------
- EXPERIMENTAL SYSTEM: L-lactate dehydrogenase A chain (Homo sapiens)
- METHOD NOTES: qHTS assay for inhibitors of human lactate dehydrogenase;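 also: values are at about 110 or 230 µM; plate controls were DMSO wells for no effect and wells without enzyme for full effect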
- TEST CONDITIONS: purified LDHA, NADH/diaphorase-resazurin fluorescence; active compounds read low
About 740 (0.15%) of roughly 480,000 compounds were called active. The full list was thinned out, with actives kept by preference.
PROPERTY LABEL: activity change

INSERT INTO measurements (molecule, experimental_result) VALUES
  ('N=C(N)CCl', '0.754% (inactive)'),
  ('O=C1CCCC2=C1C(c1ccc(C(=O)O)cc1)c1c([nH]n(-c3ccccc3)c1=O)N2 (centres undefined)', '14.2% (inactive)'),
  ('Cc1ccc(CN2C(=O)SC(Nc3ccccc3)C2=O)cc1 (centres undefined)', '-3.19% (inactive)'),
  ('O=C(NN=Cc1ccccc1O)NN=Cc1ccccc1O', '-72% (active)'),
  ('O=C(O)C(Sc1nc(-c2ccccc2)cc(C(F)(F)F)n1)c1ccccc1 (centres undefined)', '13.5% (inactive)'),
  ('Cc1ccc(N(CC(=O)N2CCN(C/C=C/c3ccccc3)CC2)S(C)(=O)=O)cc1', '-0.0793% (inactive)'),
  ('O=C(Cc1c[nH]c2ccccc12)Nc1cc(F)cc(F)c1', '0.607% (inactive)'),
  ('NS(=O)(=O)c1ccc(N2C(=O)C3C4CC(C(Br)C4Br)C3C2=O)cc1 (centres undefined)', '-58.8% (active)'),
  ('COc1ccccc1CCNC(=O)CSc1ccc(-c2ccccn2)nn1', '8.88% (inactive)'),
  ('O=C(NCc1ccco1)NNc1nc2c(-c3ccccc3)nnn2c2ccccc12', '0.688% (inactive)'),
  ('CC(=O)Nc1cccc(NC(=O)c2cnn(-c3ccccc3F)c2C(F)(F)F)c1C', '9.39% (inactive)'),
  ('Cc1nc2cc(NC(=O)COc3ccccc3C(C)(C)C)ccc2o1', '3.35% (inactive)'),
  ('CCc1ccc(NC(=O)CSc2nccn2Cc2ccccc2OC)cc1', '8.74% (inactive)'),
  ('Cc1nc2nc(CN)nn2c(C)c1CCC(=O)NC1CCCCC1', '10.1% (inactive)'),
  ('CC(=O)c1ccccc1NC(=O)c1ccccc1Cc1ccccc1', '-24.1% (inactive)'),
  ('O=C1CCCC2=C1C(c1cccnc1)CC(=O)N2c1ccccc1C(F)(F)F (centres undefined)', '0.301% (inactive)'),
  ('O=C(CCc1nc(-c2ccccc2)no1)N1CCc2sccc2C1c1cccs1 (centres undefined)', '9.21% (inactive)'),
  ('CCCc1cc(=O)oc2cc(OC(C)C(=O)Nc3cccc(C(C)=O)c3)ccc12 (centres undefined)', '1.35% (inactive)'),
  ('Cc1cc(C)c(S(=O)(=O)c2ccccc2)c(OC(=O)c2c(F)cccc2Cl)n1', '-58% (active)'),
  ('CCc1nc2nc(C)cc(Nc3ccc(F)c(Cl)c3)n2n1', '-6.31% (inactive)'),
  ('CN1CCN(CCC2(Cc3ccccc3)CCOC(C)(C)C2)CC1 (centres undefined)', '-4.19% (inactive)'),
  ('COC(=O)c1cc(NCC(=O)N2CCNC2=O)ccc1Cl', '-2.4% (inactive)'),
  ('CCN(c1ccccc1)c1nnc(NC(=O)Nc2ccccc2OC)s1', '-2.61% (inactive)'),
  ('CCOc1ccccc1N(CC)C(=O)Cc1noc2ccccc12', '1.93% (inactive)'),
  ('O=C(CSc1nnnn1C1CCCC1)N1CCCC1c1ccc2c(c1)OCCCO2 (centres undefined)', '-4.78% (inactive)'),
  ('COc1cccc2cc(C(=O)N3CCN(c4cccc(C(F)(F)F)c4)CC3)c(=O)oc12', '3.43% (inactive)'),
  ('O=C1C2C3C=CC(C3)C2C(=O)N1c1ccc(S(=O)(=O)Nc2nccs2)cc1 (centres undefined)', '-9.54% (inactive)'),
  ('O=C(O)CCC(=O)O', '0.526% (inactive)'),
  ('Cc1ccc(-c2nc(=N)sn2Cc2ccccc2)cc1', '-80.9% (active)'),
  ('CC(C)Cn1nc(C(=O)NCc2ccccc2F)c2ccccc2c1=O', '8.3% (inactive)'),
  ('CC1(C)CC(N2CCN(C(c3ccccc3)c3ccccc3)CC2)=CC(=[N+]2CCCCC2)C1', '-64.6% (active)'),
  ('CCN(CC(=O)NCc1cccs1)C(=O)c1cccc(S(=O)(=O)N(C)c2ccc(C)cc2)c1', '2.57% (inactive)'),
  ('CC(C)(C)n1nc(N)c2cc([N+](=O)[O-])ccc21', '-0.323% (inactive)'),
  ('c1ccc(Oc2ncnc3scc(-c4ccc(-c5ccccc5)cc4)c23)cc1', '2.38% (inactive)');
